The origin of these recorded values is ChEMBL document CHEMBL3751665.

system: SH-SY5Y; experiment: Cytotoxicity against human SH-SY5Y cells assessed as cell viability at 1 uM after 48 hrs by MTT assay relative to control; type: functional; conditions: read-out: Activity
Entries annotated with measured viability at 1 µM
measured parameter: viability at 1 µM (%)

INSERT INTO assay_data (smiles_code, measured_parameter, value) VALUES
  ('O=C(CCCCCCCCc1cn(-c2ccc(N3CCOCC3)cc2)nn1)Nc1ccncc1', 'viability at 1 µM', 93),
  ('O=C(/C=C/c1cccnc1)NCCCCCc1cn(-c2ccccc2-c2ccccc2)nn1', 'viability at 1 µM', 32),
  ('O=C(CCCCCCCCc1cn(-c2ccc(N3CCOCC3)cc2)nn1)NCc1cccnc1', 'viability at 1 µM', 100),
  ('O=C(Cc1cccnc1)NCCCCCc1cn(-c2ccccc2-c2ccccc2)nn1', 'viability at 1 µM', 99),
  ('O=C(CCc1cccnc1)NCCCCCc1cn(-c2ccccc2-c2ccccc2)nn1', 'viability at 1 µM', 54),
  ('O=C(CCCCCCCCc1cn(-c2cnc3ccccc3c2)nn1)Nc1ccncc1', 'viability at 1 µM', 104),
  ('O=C(CCCCCCCc1cn(-c2ccccc2-c2ccccc2)nn1)Nc1ccncc1', 'viability at 1 µM', 82),
  ('O=C(CCCCCc1cn(-c2ccccc2-c2ccccc2)nn1)NCc1cccnc1', 'viability at 1 µM', 13.4),
  ('O=C(CCCCCc1cn(-c2ccccc2-c2ccccc2)nn1)NCCc1cccnc1', 'viability at 1 µM', 29.2),
  ('O=C(CCCCCCc1cn(-c2ccccc2-c2ccccc2)nn1)NCc1cccnc1', 'viability at 1 µM', 98),
  ('O=C(CCCCCCCCc1cn(-c2cnc3ccccc3c2)nn1)NCc1cccnc1', 'viability at 1 µM', 102);
